These measurements were taken from the supplement of paper PMC13380429.

Test system: Vero E6 infected with SARS-CoV-2
Test: inhibition of SARS-CoV-2 cytopathic effect; higher = more antiviral protection, active = above 15
Settings: 1 nM; 48 h
observable: inhibition of SARS-CoV-2 cytopathic effect (%)

>>> observed_value("CCCOC(=O)c1ccc(O)cc1 [propyl 4-hydroxybenzoate]")
-1.38
>>> observed_value("O[C@@](Cc1nc(CC2(C(F)(F)F)CC2)c[nH]1)(c1ccc(-n2cccn2)cc1)C(F)(F)F")
0.23
>>> observed_value("Cn1c(=O)c2[nH]cnc2n(C)c1=O")
-0.89
>>> observed_value("c1ccc(-c2ccc(C(c3ccccc3)n3ccnc3)cc2)cc1 (centres undefined)")
3.05
>>> observed_value("O=C(O)c1cc(/N=N/c2ccc(S(=O)(=O)Nc3ccccn3)cc2)ccc1O")
-0.13
>>> observed_value("COc1cc(C[C@H]2c3cc(OC)c(OC)cc3CCN2C)c(Oc2cc3c(cc2OC)-c2c(OC)c(OC)cc4c2[C@H](C3)N(C)CC4)cc1OC")
1.34
>>> observed_value("COc1cc(C[C@@H]2NCCc3cc(O)c(O)cc32)cc(OC)c1OC")
0.9
>>> observed_value("Cc1nc2ccc(NC(=O)Nc3ccnc4cccnc34)cc2o1")
0.35
>>> observed_value("Cn1cc(C(=O)c2cccc3ccccc23)cc1C(=O)O")
-0.4

###

Tested on: Vero E6 infected with SARS-CoV-2
Test: inhibition of SARS-CoV-2 cytopathic effect; higher = more antiviral protection, active = above 15
Conditions: 1 nM; 48 h
observable: inhibition of SARS-CoV-2 cytopathic effect (%)

>>> observed_value("O=C(/C=C/c1ccccc1)NCCO")
-0.76
>>> observed_value("O=C(/C=C/c1cccnc1)NCCCCC1CCN(C(=O)c2ccccc2)CC1")
3.22
>>> observed_value("NCCCCCNCC12CC3CC(CC(C3)C1)C2")
2.39
>>> observed_value("Cn1c(=O)c(F)c(Nc2ccc(I)cc2F)c2c(=O)n(C[C@@H](O)CO)cnc21")
-3.03
>>> observed_value("C=CC1=C(C(=O)O)N2C(=O)[C@@H](NC(=O)/C(=N\\O)c3csc(N)n3)[C@H]2SC1")
1.85

###

// values below are reported SARS-CoV-2 infection rate
System: Vero E6 infected with SARS-CoV-2
Test: SARS-CoV-2 infection rate relative to infected DMSO; higher = more infection, active = 60 or less
Settings: 24 h
observable: SARS-CoV-2 infection rate (%)

>>> observed_value("C[C@]12C=CC(=O)C=C1CC[C@@H]1[C@@H]2[C@@H](O)C[C@@]2(C)[C@H]1CC[C@]2(O)C(=O)COC(=O)CCC(=O)O [prednisolone-hemisuccinate] (10 µM)")
94
>>> observed_value("CCC(C)CCCC(=O)N[C@@H](CCN)C(=O)N[C@H](C(=O)N[C@@H](CCN)C(=O)N[C@H]1CCNC(=O)[C@H]([C@@H](C)O)NC(=O)[C@H](CCN)NC(=O)[C@H](CCN)NC(=O)[C@H](CC(C)C)NC(=O)[C@@H](CC(C)C)NC(=O)[C@H](CCN)NC1=O)[C@@H](C)O (some centres undefined) [colistin] (10 µM)")
96.2
>>> observed_value("CCOc1cc(C(C)(C)C)ccc1C1=N[C@@](C)(c2ccc(Cl)cc2)[C@@](C)(c2ccc(Cl)cc2)N1C(=O)N1CCN(CCCS(C)(=O)=O)CC1 (10 µM)")
104
>>> observed_value("CCCCCCCCCCCCCCCC(=O)O[C@@H]1[C@@H](O)[C@@H](O)[C@@H]([C@H](NC(=O)[C@@H]2C[C@@H](CCC)CN2C)[C@H](C)Cl)O[C@@H]1SC [clindamycin-palmitate] (10 µM)")
108
>>> observed_value("COc1ccc2[nH]c(I)c(CCNC(C)=O)c2c1 [2-iodomelatonin] (10 µM)")
88
>>> observed_value("CCN(CC)CCOc1ccc(/C(=C(\\Cl)c2ccccc2)c2ccccc2)cc1 [clomifene] (0.833333 µM)")
96.5
>>> observed_value("CC12CCC(C(Br)C1=O)C2(C)C (centres undefined) [3-bromocamphor] (10 µM)")
106
>>> observed_value("N=C(N)c1ccc(/C=C/c2ccc(C(=N)N)cc2O)cc1 [hydroxystilbamidine] (10 µM)")
109
>>> observed_value("CCCCCCCCCCC(CO)CCCCCCCC (centres undefined) [2-octyldodecan-1-ol] (10 µM)")
110
>>> observed_value("CCN(CC)CC#CCOC(=O)C(O)(c1ccccc1)C1CCCCC1 (centres undefined) [oxybutynin] (10 µM)")
98
>>> observed_value("O=C(Nc1cc(-c2ccccc2)nn1-c1ccccc1F)c1ccc([N+](=O)[O-])cc1 (10 µM)")
93.5
>>> observed_value("Cc1ccc2c(=O)c3ccccc3n(CCCN)c2c1C (10 µM)")
110
>>> observed_value("C=CCCCCCCCCC(=O)[O][Zn][O]C(=O)CCCCCCCCC=C [zinc-undecylenate] (10 µM)")
110
>>> observed_value("CCCCCCCCCCOc1cc2c(O)c(C(=O)OCC)cnc2cc1OCC [decoquinate] (10 µM)")
101

###

System: Vero E6 infected with SARS-CoV-2
Assay: inhibition of SARS-CoV-2 cytopathic effect; higher = more antiviral protection, active = above 15
Details: 10000 nM; 48 h
observable: inhibition of SARS-CoV-2 cytopathic effect

>>> observed_value("C[C@]12Cc3c[nH]nc3C[C@@H]1CC[C@@H]1[C@@H]2CC[C@@]2(C)[C@H]1CC[C@]2(C)O")
"-5.61% (inactive)"
>>> observed_value("Cc1ccc(C)c([C@H](O)CNC(C)C)c1 [benzenemethanol,-2,5-dimethyl-[[(1-methylethyl)amino]methyl]]")
"1.34% (inactive)"
>>> observed_value("O=C(Nc1cccnc1)c1cc(-c2ccnc(F)c2)ccc1OCc1ccccc1")
"3.44% (inactive)"
>>> observed_value("CCCC(=O)OCOC(=O)C1=C(C)NC(C)=C(C(=O)OC)C1c1cccc(Cl)c1Cl (stereo not drawn)")
"4.07% (inactive)"
>>> observed_value("CC(C)CNc1ccnc(NCc2csc(-c3ccccc3)n2)n1")
"-2.77% (inactive)"
>>> observed_value("CN(C)c1ccc2c(c1)Sc1cc(N(C)C)ccc1N2")
"-7.13% (inactive)"
>>> observed_value("COc1cc(N2CCC(N3CCN(C)CC3)CC2)ccc1Nc1ncnc(Nc2ccccc2S(=O)(=O)C(C)C)n1")
"-7.16% (inactive)"
>>> observed_value("CC(=O)N(C)c1cccc(-c2ccnc3c(C(=O)c4cccs4)cnn23)c1")
"0.34% (inactive)"

###

Tested on: Vero E6 infected with SARS-CoV-2
Experiment: inhibition of SARS-CoV-2 cytopathic effect; higher = more antiviral protection, active = above 15
Conditions: 833.33 nM; 48 h
Recorded inhibition of SARS-CoV-2 cytopathic effect, one value per entry.
observable: inhibition of SARS-CoV-2 cytopathic effect (%)

>>> observed_value("CCCCCCc1ccc(O)cc1O.Nc1c2ccccc2nc2ccccc12")
3.53
>>> observed_value("CO[C@@]1(NC(=O)CSC[C@@H](N)C(=O)O)C(=O)N2C(C(=O)O)=C(CSc3nnnn3C)CS[C@@H]21")
-1.63
>>> observed_value("CCCCCCCCCCC[C@@H](C[C@@H]1OC(=O)[C@H]1CCCCCC)OC(=O)[C@H](CC(C)C)NC=O")
2.31
>>> observed_value("COc1cc(-c2ccc(=O)[nH]n2)ccc1OC(F)F")
0.7
>>> observed_value("CC(C)(Oc1ccc(Cl)cc1)C(=O)O")
2.45
>>> observed_value("CCNC(=O)[C@@H]1CCCN1C(=O)[C@H](CCCNC(=N)N)NC(=O)[C@H](CC(C)C)NC(=O)[C@@H](C)NC(=O)[C@H](Cc1ccc(O)cc1)NC(=O)[C@H](CO)NC(=O)[C@H](Cc1c[nH]c2ccccc12)NC(=O)[C@H](Cc1cnc[nH]1)NC(=O)[C@@H]1CCC(=O)N1")
1.34
>>> observed_value("O=C(O)[C@H](Cc1ccc(Nc2nccc3ccncc23)cc1)NC1=C(Br)C(=O)C12CCCCC2")
-0.14

###

Tested on: Vero E6 infected with SARS-CoV-2
Test: inhibition of SARS-CoV-2 cytopathic effect; higher = more antiviral protection, active = above 15
Settings: 100 nM; 48 h
Counter-ions that a name gives are not always drawn.
observable: inhibition of SARS-CoV-2 cytopathic effect (%)

>>> observed_value("O=C(Nc1cccc(Cl)c1)c1ccccn1")
-2.59
>>> observed_value("CC(=O)O[C@H]1Cc2ccccc2N(C(N)=O)c2ccccc21 [eslicarbazepine-acetate]")
1.48
>>> observed_value("CCNC(=O)Nc1ccc(-c2nc3c(c(N4CCOC[C@@H]4C)n2)CCN(C2COC2)C3)cc1")
-0.8
>>> observed_value("c1ccc2c(c1)CCCC2C1=NCCN1 (stereo not given) [tetrahydrozoline]")
2.06
>>> observed_value("CC1(C)S[C@@H]2[C@H](NC(=O)C(C(=O)O)c3ccccc3)C(=O)N2[C@H]1C(=O)O (stereo not given in full) [carbenicillin]")
0.55
>>> observed_value("Nc1cc(Cl)c(N=C2NCCN2)c(Cl)c1 [apraclonidine]")
-1.3
>>> observed_value("CCN1CCC[C@H]1CNC(=O)c1c(OC)ccc(Br)c1OC [remoxipride]")
0.28
>>> observed_value("Cc1nccn1CCC(C(N)=O)(c1ccccc1)c1ccccc1 [imidafenacin]")
1.32
>>> observed_value("CO[C@]12C[C@@H](COC(=O)c3cncc(Br)c3)CN(C)[C@@H]1Cc1cn(C)c3cccc2c13 [nicergoline]")
-1.54
>>> observed_value("COC(=O)C1=C(C)NC(C)=C([N+](=O)[O-])[C@@H]1c1ccccc1C(F)(F)F (racemic)")
-1.34
>>> observed_value("Clc1ccc2c(c1)N=C(N1CCNCC1)c1ccccc1N2 [desmethylclozapine]")
0.19
>>> observed_value("C[C@@H]1CC[C@@]2(OC1)O[C@H]1C[C@H]3[C@@H]4CC=C5C[C@@H](O[C@@H]6O[C@H](CO)[C@@H](O[C@@H]7O[C@@H](C)[C@H](O)[C@@H](O)[C@H]7O)[C@H](O)[C@H]6O[C@@H]6O[C@@H](C)[C@H](O)[C@@H](O)[C@H]6O)CC[C@]5(C)[C@H]4CC[C@]3(C)[C@H]1[C@@H]2C [dioscin]")
-2.63
>>> observed_value("CC(C)[C@@]1(NC(=O)[C@@H]2C[C@@H]3c4cccc5[nH]cc(c45)C[C@H]3N(C)C2)O[C@@]2(O)[C@@H]3CCCN3C(=O)[C@H](Cc3ccccc3)N2C1=O [dihydroergocristine]")
0.24
>>> observed_value("CC#CCOC(=O)c1c(C)nc2sc3c(c2c1N)CCC(O)C3 (stereo not given)")
3.12
>>> observed_value("C/C=C/C=C/C(=O)O [sorbic-acid]")
-1.43
>>> observed_value("Nc1nc(N)c2nc(-c3ccccc3)c(N)nc2n1 [triamterene]")
4.04
>>> observed_value("C[S+](C)CC[C@H](N)C(=O)O [cabagin]")
-0.11
>>> observed_value("N[C@@H]1c2cccnc2[C@H](OC(=O)N2CCC(n3c(=O)[nH]c4ncccc43)CC2)CC[C@H]1c1cccc(F)c1F [rimegepant]")
-0.46
>>> observed_value("O=c1oc2c(O)c(O)cc3c(=O)oc4c(O)c(O)cc1c4c23 [ellagic-acid]")
4.12
>>> observed_value("COc1cc2c(NC3CCN(CC4CCCCC4)CC3)nc(N3CCCN(C(C)C)CC3)nc2cc1OCCCN1CCCCC1")
-3.06
>>> observed_value("O=C(Cc1ccc(-c2ccc(OCCN3CCOCC3)cc2)cn1)NCc1ccccc1")
-3.29
>>> observed_value("Nc1nc(N)nc(-c2cc(Cl)ccc2Cl)n1 [irsogladine]")
0.04
>>> observed_value("COc1ccc(-c2cnc3c(-c4cccc5ncccc45)cnn3c2)cc1")
0.925
>>> observed_value("NC(=O)CN1CC(c2ccccc2)CC1=O (stereo not given) [phenylpiracetam]")
2.27
>>> observed_value("c1ccc2c(-c3cnn4cc(-c5ccc(N6CCNCC6)cc5)cnc34)ccnc2c1")
1.29
>>> observed_value("Cc1cc(-c2ccc(CC(=O)Nc3ccc(-c4cccnc4)cc3)cc2)ccn1")
-2.93
>>> observed_value("CC/C(=C(\\c1ccc(O)cc1)c1ccc(OCCNC)cc1)c1ccccc1 [Endoxifen HCl]")
10.6
>>> observed_value("COC(=O)N[C@H](C(=O)N1CCC[C@H]1c1nc(-c2ccc3c(c2)O[C@@H](c2ccccc2)n2c-3cc3cc(-c4c[nH]c([C@@H]5CCCN5C(=O)[C@@H](NC(=O)OC)C(C)C)n4)ccc32)c[nH]1)C(C)C [elbasvir]")
0.09
>>> observed_value("N#Cc1ccc(C(c2ccc(C#N)cc2)n2cncn2)cc1 [letrozole]")
0.11
>>> observed_value("COc1c2occc2c(OC)c2c(=O)cc(C)oc12 [khellin]")
-0.95
>>> observed_value("COc1cc(N)cn[n+]1-c1ccccc1 [amezinium]")
0.21
>>> observed_value("Cc1cccc(C)c1NC(=O)c1ccccc1C(=O)O [ftaxilide]")
-1.2
>>> observed_value("Oc1ccc(Nc2nc(-c3ccc(Cl)cc3)cs2)cc1")
2.65
>>> observed_value("COc1cccc(OC)c1-c1cc(C(=O)N[C@@H](CC(C)C)C(=O)O)nn1-c1ccnc2cc(Cl)ccc12")
-0.45
>>> observed_value("CC(=O)Oc1cc(C(F)(F)F)ccc1C(=O)O [triflusal]")
-1.38
